The following compounds are listed with their measured IC50 values.
Biological target: Vps34 (Homo sapiens, UniProt Q8NEB9)
Sequence (Q8NEB9 whole entry, species assumed): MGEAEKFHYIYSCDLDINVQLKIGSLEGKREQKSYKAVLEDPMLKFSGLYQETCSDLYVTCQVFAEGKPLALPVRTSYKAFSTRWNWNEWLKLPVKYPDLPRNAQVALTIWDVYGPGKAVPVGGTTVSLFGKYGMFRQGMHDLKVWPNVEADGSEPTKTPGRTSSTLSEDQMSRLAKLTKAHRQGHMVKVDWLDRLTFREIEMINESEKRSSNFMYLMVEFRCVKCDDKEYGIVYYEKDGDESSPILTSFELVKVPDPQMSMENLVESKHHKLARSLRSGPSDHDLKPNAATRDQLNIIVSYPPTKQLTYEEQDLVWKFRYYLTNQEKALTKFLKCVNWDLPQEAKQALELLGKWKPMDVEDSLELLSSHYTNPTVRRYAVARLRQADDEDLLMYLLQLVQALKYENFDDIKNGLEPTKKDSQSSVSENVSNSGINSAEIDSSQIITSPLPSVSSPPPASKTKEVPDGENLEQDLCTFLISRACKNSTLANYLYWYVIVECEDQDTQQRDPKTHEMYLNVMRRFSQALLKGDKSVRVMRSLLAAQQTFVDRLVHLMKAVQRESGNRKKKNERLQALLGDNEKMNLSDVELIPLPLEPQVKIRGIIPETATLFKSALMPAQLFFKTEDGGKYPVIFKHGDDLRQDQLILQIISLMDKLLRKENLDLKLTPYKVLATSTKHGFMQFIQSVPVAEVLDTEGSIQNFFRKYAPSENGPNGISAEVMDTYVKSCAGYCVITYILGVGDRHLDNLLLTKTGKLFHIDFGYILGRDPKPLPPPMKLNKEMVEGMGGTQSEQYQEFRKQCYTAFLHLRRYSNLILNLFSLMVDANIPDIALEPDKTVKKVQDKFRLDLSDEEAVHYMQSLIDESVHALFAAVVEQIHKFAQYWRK
Assay: Kinase Glo Luminescent Kinase Assay (Kglo), assay C
Type: biochemical
Conditions: read-out: Assay C VPS34 IC50

Some solved cases for reference:
compound | IC50
Cc1ccc(S(=O)(=O)N2CC(F)(F)C2)cc1-c1cnc(N)c(-n2cncn2)n1 | > 9.55 µM
Cc1ncc(-c2nc(-c3cc(S(=O)(=O)NCCCO)ccc3C)cnc2N)s1 | 0.21 µM
Cc1ccc(S(=O)(=O)NC(C)C(C)C)cc1-c1cnc(N)c(-n2cncn2)n1 (centres unmarked) | > 10 µM

Ask | What reported IC50 corresponds to Cc1ccc(S(=O)(=O)NCCC(C)(C)O)cc1-c1cnc(N)c(-c2cnn(Cc3ccncc3)c2)n1 on Vps34 (Homo sapiens, UniProt Q8NEB9)?
Reply | > 9.1 µM

Ask | What reported IC50 corresponds to Cc1ccc(S(=O)(=O)N2CC(F)(F)C(F)(F)C2)cc1-c1cnc(N)c(-n2cncn2)n1 on Vps34 (Homo sapiens, UniProt Q8NEB9)?
Reply | > 10 µM
